For each entry below, report its normalized RNA/DNA level without ligand (log10) value.
B1: library; a variant is named by its letters at N, in order (parent)
chain: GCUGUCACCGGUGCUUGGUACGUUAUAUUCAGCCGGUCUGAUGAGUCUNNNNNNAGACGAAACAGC

Variants of: B1
Experiment: normalized RNA/DNA level without ligand (relative to sTRSVctl = 100) (log10 (% of sTRSVctl)); HEK293T overexpressing SLC46A1; higher = less ribozyme self-cleavage, higher mRNA level
Conditions: without (6R,S)-folinic acid; ligand present: no
Numbers only.

Sample answers from the record:
> print(dat)
                         biopolymer.sequence  data.value
 1  GCUGUCACCGGUGCUUGGUACGUUAUAUUCAGCCGGUCUGAUGAGUCUCAAGCGAGACGAAACAGC [CAAGCG]        2.06
 2  GCUGUCACCGGUGCUUGGUACGUUAUAUUCAGCCGGUCUGAUGAGUCUGUUUAAAGACGAAACAGC [GUUUAA]        1.99
 3  GCUGUCACCGGUGCUUGGUACGUUAUAUUCAGCCGGUCUGAUGAGUCUCUGAUAAGACGAAACAGC [CUGAUA]        1.97
 4  GCUGUCACCGGUGCUUGGUACGUUAUAUUCAGCCGGUCUGAUGAGUCUCUAAACAGACGAAACAGC [CUAAAC]        1.98
 5  GCUGUCACCGGUGCUUGGUACGUUAUAUUCAGCCGGUCUGAUGAGUCUCAUGCUAGACGAAACAGC [CAUGCU]        2.05
 6  GCUGUCACCGGUGCUUGGUACGUUAUAUUCAGCCGGUCUGAUGAGUCUAUGGGCAGACGAAACAGC [AUGGGC]        2.01
 7  GCUGUCACCGGUGCUUGGUACGUUAUAUUCAGCCGGUCUGAUGAGUCUCUAACGAGACGAAACAGC [CUAACG]        2.02
 8  GCUGUCACCGGUGCUUGGUACGUUAUAUUCAGCCGGUCUGAUGAGUCUUUCACCAGACGAAACAGC [UUCACC]        2.06
 9  GCUGUCACCGGUGCUUGGUACGUUAUAUUCAGCCGGUCUGAUGAGUCUCACGCGAGACGAAACAGC [CACGCG]           2
10  GCUGUCACCGGUGCUUGGUACGUUAUAUUCAGCCGGUCUGAUGAGUCUUUCCCGAGACGAAACAGC [UUCCCG]        1.97

// each listed variant needs a value for normalized RNA/DNA level without ligand (log10)
1. GCUGUCACCGGUGCUUGGUACGUUAUAUUCAGCCGGUCUGAUGAGUCUACACGCAGACGAAACAGC [ACACGC]
2. GCUGUCACCGGUGCUUGGUACGUUAUAUUCAGCCGGUCUGAUGAGUCUGCGCUAAGACGAAACAGC [GCGCUA]
3. GCUGUCACCGGUGCUUGGUACGUUAUAUUCAGCCGGUCUGAUGAGUCUGGCCCCAGACGAAACAGC [GGCCCC]
4. GCUGUCACCGGUGCUUGGUACGUUAUAUUCAGCCGGUCUGAUGAGUCUCAACUCAGACGAAACAGC [CAACUC]

(A)
1. 1.98
2. 2.07
3. 2.02
4. 2.06

// each listed variant needs a value for normalized RNA/DNA level without ligand (log10)
1. GCUGUCACCGGUGCUUGGUACGUUAUAUUCAGCCGGUCUGAUGAGUCUGUCCCGAGACGAAACAGC [GUCCCG]
2. GCUGUCACCGGUGCUUGGUACGUUAUAUUCAGCCGGUCUGAUGAGUCUAAGCUUAGACGAAACAGC [AAGCUU]
3. GCUGUCACCGGUGCUUGGUACGUUAUAUUCAGCCGGUCUGAUGAGUCUGUUACGAGACGAAACAGC [GUUACG]
4. GCUGUCACCGGUGCUUGGUACGUUAUAUUCAGCCGGUCUGAUGAGUCUUUCUUCAGACGAAACAGC [UUCUUC]
5. GCUGUCACCGGUGCUUGGUACGUUAUAUUCAGCCGGUCUGAUGAGUCUACAGAGAGACGAAACAGC [ACAGAG]

(A)
1: 2; 2: 2.01; 3: 1.99; 4: 2.05; 5: 1.61

// each listed variant needs a value for normalized RNA/DNA level without ligand (log10)
1. GCUGUCACCGGUGCUUGGUACGUUAUAUUCAGCCGGUCUGAUGAGUCUGGACACAGACGAAACAGC [GGACAC]
2. GCUGUCACCGGUGCUUGGUACGUUAUAUUCAGCCGGUCUGAUGAGUCUGAACCAAGACGAAACAGC [GAACCA]

(A)
[2.01, 2.02]
